- Test system: MCF7
- Protocol notes: Antiproliferative activity against human MCF7 cells assessed as growth inhibition after 24 hrs by MTT assay
- Format: functional, cell-based
- Experimental setup: MCF7, 24 h
Metric name: IC50 (µM)

(a) CCCCCCCCCCCCCC(=O)N[C@H](CO)[C@@H](O)c1ccc([N+](=O)[O-])cc1
(b) CCCCCCCCCCCCCC(=O)N[C@@H](CO)[C@H](O)c1ccc([N+](=O)[O-])cc1
Data request: Lower value for measured IC50? Options: a , b Indicate your choice by writing its label.
Data returned: b
(b: 10.2 µM, a: 18 µM)

----------
- Protocol notes: Drug metabolism in human MCF7 cells assessed as ceramidase mediated C24:1 metabolite formation after 24 hrs by UHPLC-MS/MS analysis
- Type: ADME, cell-based
- Experimental setup: mcf7, 24 h
Metric name: Drug metabolism

> print(dat)
                                smiles.repr         result.value
1  CCCCCCCCCCCCCC(=O)N[C@@H](CO)[C@@H](O)c1ccc([N+](=O)[O-])cc1  Metabolite_Detected
2  CCCCCCCCCCCCCC(=O)N[C@@H](CO)[C@H](O)c1ccc([N+](=O)[O-])cc1  Metabolite_Detected
3  CCCCCCCCCCCCCC(=O)N[C@H](CO)[C@@H](O)c1ccc([N+](=O)[O-])cc1  Metabolite_Detected
4  CCCCCCCCCCCCCC(=O)N[C@H](CO)[C@H](O)c1ccc([N+](=O)[O-])cc1  Metabolite_Detected

All values here come from ChEMBL document CHEMBL4715895.
